Field: IC50. Provide a value for each of the compounds that follow.
- study target: Plasma kallikrein (Homo sapiens)
- protocol text: Inhibition of human plasma kallikrein using H-D-Pro-Phe-Arg-AFC as flurogenic substrate preincubated for 5 mins followed by substrate addition by fluorometer analysis
- Type: cell-free
Answers are plain numbers, in nM.

> print(dat)
                              sample.smiles  unit.symbol  reading
1  Cc1cnn(Cc2ccc(Cn3c(C)cc(C(=O)NCc4ccc(CN)cc4)c3C)cc2)c1           nM       65

The following compounds each have a reported value; give each one's IC50.
1. COCc1nn(Cc2ccc(Cn3ccccc3=O)cc2)cc1C(=O)NCc1nccc(OC(C)C)c1F
2. Cc1cc(C(=O)NCc2ccc(CN)cc2)c(C)n1Cc1csc(-c2ccccc2)c1
3. Cc1cc(C(=O)NCc2ccc(CN)cc2)c(C)n1Cc1csc(Cc2ccccc2)n1
4. COCc1nn(Cc2ccc(Cn3ccccc3=O)cc2)cc1C(=O)NCc1nccc(C)c1Cl
5. COCc1nn(Cc2ccc(Cn3ccccc3=O)cc2)cc1C(=O)NCc1cc(C)[nH]n1

1. 2400
2. 600
3. 2700
4. 300
5. 220

The following compounds each have a reported value; give each one's IC50.
1. Cc1cc(C(=O)NCc2ccc(CN)cc2)c(C)n1Cc1ccccc1
2. O=C(NCc1c(Cl)cccc1Cl)c1cnn(Cc2ccc(Cn3ccccc3=O)cc2)c1
3. COCc1nn(Cc2ccc(Cn3ccccc3=O)cc2)cc1C(=O)NCc1nccc(Cl)c1F
4. COCc1nn(Cc2ccc(Cn3ccccc3=O)cc2)cc1C(=O)NCc1ncc(C)c(OC)c1C

3700
40
93
37

---

- study target: Plasma kallikrein (Homo sapiens)
- protocol text: Inhibition of human plasma kallikrein using H-D-Pro-Phe-Arg-AFC as flurogenic substrate preincubated for 5 mins followed by substrate addition by fluorometer analysis
- Type: cell-free
property label: pIC50
Numbers only, as −log10 of the molar value.

Study these solved cases before continuing.
> print(dat)
                              sample.smiles  reading
1  CCOc1ccnc(CNC(=O)c2cn(Cc3ccc(Cn4ccccc4=O)cc3)nc2COC)c1F     8.10
2  COCc1nn(Cc2ccc(Cn3ccccc3=O)cc2)cc1C(=O)NCc1cnccc1C(F)(F)F     6.34
3  Cc1cc(C(=O)NCc2ccc(CN)cc2)c(C)n1CCCCc1ccccc1     6.04
4  COCc1nn(Cc2ccc(Cn3ccccc3=O)cc2)cc1C(=O)NCc1c(F)ccc(OC)c1F     8.22
5  COCc1nn(Cc2ccc(Cn3ccccc3=O)cc2)cc1C(=O)NCc1nccc(C)c1F     6.85
6  COc1ccnc(CNC(=O)c2cn(Cc3ccc(Cn4ccccc4=O)cc3)nc2C2CC2)c1F     8.36
7  O=C(NCc1c(F)cccc1Cl)c1cnn(Cc2ccc(Cn3ccccc3=O)cc2)c1     7.51
8  Cc1cc(C(=O)NCc2ccc(CN)cc2)c(C)n1Cc1coc(-c2ccccc2)n1     6.32

The following compounds each have a reported value; give each one's pIC50.
1. COc1ccc(F)c(CNC(=O)c2cn(Cc3ccc(Cn4ccccc4=O)cc3)nc2CN(C)C)c1F
2. NCc1ccc(CNC(=O)c2cnn(Cc3csc(-c4ccccc4)n3)c2)cc1
3. COCc1nn(Cc2ccc(Cn3ccccc3=O)cc2)cc1C(=O)NCc1cc[nH]n1
4. N=C(N)c1ccc(CNC(=O)c2cnn(Cc3ccccc3)c2)cc1

[8.20, 6.07, 6.24, 7.21]

---

- study target: Plasma kallikrein (Homo sapiens, UniProt P03952)
- Sequence (P03952 20-390 limits assumed): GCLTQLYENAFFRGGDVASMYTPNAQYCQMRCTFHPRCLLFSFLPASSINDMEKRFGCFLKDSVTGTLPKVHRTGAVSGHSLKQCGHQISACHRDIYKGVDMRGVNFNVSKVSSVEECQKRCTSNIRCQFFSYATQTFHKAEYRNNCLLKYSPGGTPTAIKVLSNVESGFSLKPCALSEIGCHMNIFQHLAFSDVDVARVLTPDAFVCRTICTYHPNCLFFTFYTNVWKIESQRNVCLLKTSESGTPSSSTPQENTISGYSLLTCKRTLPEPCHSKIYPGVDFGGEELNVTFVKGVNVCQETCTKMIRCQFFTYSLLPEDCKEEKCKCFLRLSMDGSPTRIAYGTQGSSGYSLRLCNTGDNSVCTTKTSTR
- Sequence (P03952 391-638 limits assumed): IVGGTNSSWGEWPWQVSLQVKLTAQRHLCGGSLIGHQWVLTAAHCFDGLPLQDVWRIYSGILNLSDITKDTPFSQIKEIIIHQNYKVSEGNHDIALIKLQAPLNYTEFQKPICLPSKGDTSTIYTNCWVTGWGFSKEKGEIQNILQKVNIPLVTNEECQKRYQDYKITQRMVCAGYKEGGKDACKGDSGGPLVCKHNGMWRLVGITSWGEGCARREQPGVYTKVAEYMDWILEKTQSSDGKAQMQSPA
- protocol text: Inhibition of human plasma kallikrein using H-D-Pro-Phe-Arg-AFC as flurogenic substrate preincubated for 5 mins followed by substrate addition by fluorometer analysis
- Assay type: cell-free
pIC50: −log10 of the molar value.
Rule: class 1 for pIC50 not less than 6, class 0 for anything less.

Example cases with answers are listed next.
> print(dat)
                              sample.smiles  label.value
1  Cc1cc(C(=O)NCc2ccc(CN)cc2)c(C)n1Cc1cccs1      class 0
2  COCc1nn(Cc2ccc(Cn3ccccc3=O)cc2)cc1C(=O)NCc1ncc(F)cc1F      class 0
3  COc1ccnc(CNC(=O)c2cnn(Cc3ccc(Cn4ccccc4=O)cc3)c2)c1F      class 1
4  COCc1nn(Cc2ccc(Cn3ccccc3=O)cc2)cc1C(=O)NCc1c(C#N)ccc(OC)c1F      class 1
5  Cc1cc(C(=O)NCc2ccc(CN)cc2)c(C)n1Cc1cc(-c2ccccc2)cs1      class 1

Answer whether pIC50 of Cc1cc(C(=O)NCc2ccc(CN)cc2)c(C)n1Cc1csc(-c2cccnc2)c1 is greater than or equal to 6.
class 1

Answer whether pIC50 of COCc1nn(Cc2ccc(Cn3ccccc3=O)cc2)cc1C(=O)NCc1ncc(Cl)cc1C#N is greater than or equal to 6.
class 1

---

- study target: Plasma kallikrein (Homo sapiens)
- protocol text: Inhibition of human plasma kallikrein using H-D-Pro-Phe-Arg-AFC as flurogenic substrate preincubated for 5 mins followed by substrate addition by fluorometer analysis
- Assay type: cell-free
So basically, if IC50 comes in under 20 nM it's true (1), and if it's 20 nM or more it's false (0).

Example cases with answers are listed next.
> print(dat)
                              sample.smiles                      study.target  label.value
1  COCc1nn(Cc2ccc(Cn3ccccc3=O)cc2)cc1C(=O)NCc1nc(OC)ccc1F  Plasma kallikrein (Homo sapiens)    false (0)
2  Cc1cc(C(=O)NCc2ccc(CN)cc2)c(C)n1Cc1cccc(-c2ccccc2)c1  Plasma kallikrein (Homo sapiens)    false (0)
3  COc1ccc(F)c(CNC(=O)c2cnn(Cc3ccc(Cn4ccccc4=O)cc3)c2)c1F  Plasma kallikrein (Homo sapiens)     true (1)
4  Cc1cc(C(=O)NCc2ccc(CN)cc2)c(C)n1CCCCCc1ccccc1  Plasma kallikrein (Homo sapiens)    false (0)
5  Cc1cc(C(=O)NCc2ccc(C(=N)N)cc2)c(C)n1Cc1ccccc1  Plasma kallikrein (Homo sapiens)     true (1)

# ---- query compound ----
Dear reviewer, please state whether COCc1nn(Cc2ccc(Cn3ccccc3=O)cc2)cc1C(=O)NCc1sccc1Cl has IC50 strictly beneath 20 nM.
false (0)

---

Field: IC50. Provide a value for each of the compounds that follow.
- study target: Plasma kallikrein (Homo sapiens, UniProt P03952)
- protocol text: Inhibition of human plasma kallikrein using H-D-Pro-Phe-Arg-AFC as flurogenic substrate preincubated for 5 mins followed by substrate addition by fluorometer analysis
- Format: cell-free
Numbers only, in nM.

The following compounds each have a reported value; give each one's IC50.
1. O=C(NCc1c(F)cccc1F)c1cnn(Cc2ccc(Cn3ccccc3=O)cc2)c1
2. Cc1cc(C(=O)NCc2ccc(CN)cc2)c(C)n1Cc1csc(-c2ccccc2)n1
3. COCc1nn(Cc2ccc(Cn3ccccc3=O)cc2)cc1C(=O)NCc1cccc(OC)c1F

62
72
17
